Source: ChEMBL document CHEMBL4406826

biological target: Cholinesterase (Equus caballus) (UniProt P81908); test: Inhibition of equine serum BuChE at 20 uM using butyrylthiocholine iodide as substrate preincubated with enzyme for 20 mins followed by substrate addition by Ellman's method relative to control
Sequence (P81908 whole entry): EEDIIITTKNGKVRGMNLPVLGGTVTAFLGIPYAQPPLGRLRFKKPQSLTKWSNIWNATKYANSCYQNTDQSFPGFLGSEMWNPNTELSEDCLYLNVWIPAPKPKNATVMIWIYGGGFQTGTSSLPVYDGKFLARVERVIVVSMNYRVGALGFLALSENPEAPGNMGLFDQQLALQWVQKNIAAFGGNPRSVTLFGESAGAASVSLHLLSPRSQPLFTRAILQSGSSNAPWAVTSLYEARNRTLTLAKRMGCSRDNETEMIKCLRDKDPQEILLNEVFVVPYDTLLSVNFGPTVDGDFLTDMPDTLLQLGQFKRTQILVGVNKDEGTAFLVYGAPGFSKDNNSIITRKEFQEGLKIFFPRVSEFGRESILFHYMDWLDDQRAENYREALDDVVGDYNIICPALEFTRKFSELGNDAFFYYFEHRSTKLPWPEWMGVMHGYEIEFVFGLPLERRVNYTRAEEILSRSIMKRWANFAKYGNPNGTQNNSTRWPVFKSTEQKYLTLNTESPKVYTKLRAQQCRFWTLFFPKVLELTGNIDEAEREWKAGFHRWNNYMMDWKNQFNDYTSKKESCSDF
Active and inactive are the calls of the source. The calls are words filed in the database; no cut-off is given here.
readoutType: inhibition

The cases that follow already have their inhibition on record.
molecule | observed
Cc1cc(C2CS(=O)(=O)Oc3c2c(C)nn3-c2ccc(Cl)cc2)ccc1Br (stereo not given) | 34%
COc1ccc(-c2nn(-c3ccccc3Cl)c3c2C(c2ccc(F)cc2)CS(=O)(=O)O3)cc1 (stereo not given) | inactive
COc1ccc(-c2nn(-c3ccc(Cl)cc3)c3c2C(c2ccc(F)cc2)CS(=O)(=O)O3)cc1 (stereo not given) | 7%
N#Cc1ccc(C2CS(=O)(=O)Oc3c2c(C2CC2)nn3-c2ccccc2Cl)cc1 (stereo not given) | 7%
Cc1nn(-c2ccc(F)cc2)c2c1C(c1ccccc1)CS(=O)(=O)O2 (stereo not given) | inactive

Give inhibition for Cc1cc(C2CS(=O)(=O)Oc3c2c(C2CC2)nn3-c2cccc(Cl)c2)ccc1Br (stereo not given)
34%

Quick one: give measured inhibition for Cc1cc(C2CS(=O)(=O)Oc3c2c(C)nn3-c2cccc(Cl)c2)ccc1Br (stereo not given)
inactive

Give inhibition for Cc1nn(-c2ccccc2)c2c1C(c1cccs1)CS(=O)(=O)O2 (stereo not given)
42%

Please supply the value of reported inhibition for the item N#Cc1ccc(C2CS(=O)(=O)Oc3c2c(C2CC2)nn3-c2cccc(Cl)c2)cc1 (stereo not given)
inactive

Provide measured inhibition value, entry: Cc1ccc(-n2nc(C)c3c2OS(=O)(=O)CC3c2ccccc2)cc1 (stereo not given)
inactive

###

molecular target: Cholinesterase (Equus caballus); test: Inhibition of equine serum BuChE using butyrylthiocholine iodide as substrate preincubated with enzyme for 20 mins followed by substrate addition by Ellman's method
readoutType: IC50 (µM)
State just the number; it will be interpreted in µM.

# example entries with known answers
molecule | IC50 [µM]
Cc1cc(C2CS(=O)(=O)Oc3c2c(C2CC2)nn3-c2ccccc2Cl)ccc1Br (stereo not drawn) | 3.77
COc1ccc(-c2nn(-c3ccccc3F)c3c2CCS(=O)(=O)O3)cc1 | 0.46

We now examine a further molecule.
Dear colleague, please send me the reported IC50 for Cc1cccc(C2CS(=O)(=O)Oc3c2c(C)nn3-c2ccccc2)c1 (stereo not drawn) when you can.
17.7

###

Listed molecules paired with reported pIC50
molecular target: Cholinesterase (Equus caballus); assay: Inhibition of equine serum BuChE using butyrylthiocholine iodide as substrate preincubated with enzyme for 20 mins followed by substrate addition by Ellman's method
Lab note: report pIC50 as minus log10 of the concentration in molar units, number only.

# example entries with known answers
molecule | pIC50
Cc1nn(-c2ccccc2F)c2c1CCS(=O)(=O)O2 | 5.74
Cc1nn(-c2ccccc2)c2c1C(c1cccc(F)c1)CS(=O)(=O)O2 (stereo not drawn) | 5.01

Let's switch to this molecule now.
Return the recorded pIC50 value; entry: COc1cccc(C2CS(=O)(=O)Oc3c2c(C2CC2)nn3-c2cccc(F)c2)c1 (stereo not drawn)
4.84

###

target: UniProt P81908; test: Inhibition of equine serum BuChE at 20 uM using butyrylthiocholine iodide as substrate preincubated with enzyme for 20 mins followed by substrate addition by Ellman's method relative to control
Calls of active or inactive are those of the source. The rule behind the calls is not given here.
readoutType: inhibition

Solved cases (6 shown):
molecule | testTarget | inhibition
Cc1cccc(-n2nc(C)c3c2OS(=O)(=O)CC3c2ccccc2)c1 (configuration not stated) | UniProt P81908 | inactive
Cc1ccc(C2CS(=O)(=O)Oc3c2c(C)nn3-c2ccccc2)cc1 (configuration not stated) | UniProt P81908 | inactive
Cc1nn(-c2ccccc2)c2c1C(c1cnn(-c3ccccc3)c1)CS(=O)(=O)O2 (configuration not stated) | UniProt P81908 | 14%
CC(=O)c1cccc(C2CS(=O)(=O)Oc3c2c(C)nn3-c2ccccc2)c1 (configuration not stated) | UniProt P81908 | 24%
Cc1cc(C)cc(C2CS(=O)(=O)Oc3c2c(C)nn3-c2ccccc2)c1 (configuration not stated) | UniProt P81908 | inactive
O=C1CCC2=C1C(c1ccc([N+](=O)[O-])cc1)CS(=O)(=O)O2 (configuration not stated) | UniProt P81908 | inactive

Consider the molecule Cc1nn(-c2ccc(Cl)cc2)c2c1C(c1cccc(F)c1)CS(=O)(=O)O2 (configuration not stated) and give its recorded inhibition.
inactive

Name the recorded inhibition of the molecule listed here: Cc1nn(-c2ccccc2)c2c1C(c1ccc(-c3ccccc3)cc1)CS(=O)(=O)O2 (configuration not stated)
inactive

Answer with reported inhibition of COc1ccc(-n2nc(C)c3c2OS(=O)(=O)CC3c2ccc(Br)c(C)c2)cc1 (configuration not stated)
inactive

Tell me measured inhibition for O=S1(=O)CC(c2cccc(C(F)(F)F)c2)c2c(C3CC3)nn(-c3ccccc3Cl)c2O1 (configuration not stated) please.
inactive

Specify inhibition for CC1(C)CC(=O)C2=C(C1)OS(=O)(=O)CC2c1ccc([N+](=O)[O-])cc1 (configuration not stated) and stop.
inactive

For the molecule Cc1nn(-c2cccc(Cl)c2)c2c1C(c1ccc(F)cc1)CS(=O)(=O)O2 (configuration not stated) , give its measured inhibition value.
inactive
